For each of the compounds below, state its pIC50.
assay: Inhibition of human PCFT expressed in Chinese hamster R2/PCFT4 cells assessed as antiproliferative activity measured as reduction in cell viability after 96 hrs by Cell-Titer Blue fluorescence analysis
One number for each entry, as −log10 of the molar value.

Worked examples, 3 compounds total:
Nc1nc2[nH]c(CCN(C(=O)C(F)(F)F)c3ccc(C(=O)N[C@@H](CCC(=O)O)C(=O)O)cc3)cc2c(=O)[nH]1	6.96
CC(=O)N(CCc1cc2c(=O)[nH]c(N)nc2[nH]1)c1ccc(C(=O)N[C@@H](CCC(=O)O)C(=O)O)cc1	7.09
Nc1nc2[nH]c(CCSc3ccc(C(=O)N[C@@H](CCC(=O)O)C(=O)O)cc3)cc2c(=O)[nH]1	6.57

Batch: pIC50 for all items listed.
1. Nc1nc2[nH]c(CCN(C=O)c3ccc(C(=O)N[C@@H](CCC(=O)O)C(=O)O)cc3)cc2c(=O)[nH]1
2. Nc1nc2[nH]c(CCOc3ccc(C(=O)N[C@@H](CCC(=O)O)C(=O)O)cc3)cc2c(=O)[nH]1
3. Nc1nc2[nH]c(CCNc3ccc(C(=O)N[C@@H](CCC(=O)O)C(=O)O)cc3)cc2c(=O)[nH]1

**A:**
[7.05, 7.24, 7.06]

###

assay: Inhibition of human FR-alpha receptor expressed in Chinese hamster RT16 cells assessed as antiproliferative activity measured as reduction in cell viability after 96 hrs by Cell-Titer Blue fluorescence analysis
Threshold 3 nM: IC50 strictly smaller gives Criterion met, otherwise Criterion not met.

Some entries whose results are on file:
Nc1nc2[nH]c(CCN(C(=O)C(F)(F)F)c3ccc(C(=O)N[C@@H](CCC(=O)O)C(=O)O)cc3)cc2c(=O)[nH]1	Criterion met
CC(=O)N(CCc1cc2c(=O)[nH]c(N)nc2[nH]1)c1ccc(C(=O)N[C@@H](CCC(=O)O)C(=O)O)cc1	Criterion not met
Nc1nc2[nH]c(CCOc3ccc(C(=O)N[C@@H](CCC(=O)O)C(=O)O)cc3)cc2c(=O)[nH]1	Criterion met

**Q:** Please let me know if `Nc1nc2[nH]c(CCSc3ccc(C(=O)N[C@@H](CCC(=O)O)C(=O)O)cc3)cc2c(=O)[nH]1` shows IC50 below 3 nM.
**A:** Criterion met

###

test: Inhibition of human RFC expressed in Chinese hamster PC43-10 cells assessed as antiproliferative activity measured as reduction in cell viability after 96 hrs by Cell-Titer Blue fluorescence analysis
VALUE KIND: pIC50
Answers are plain numbers, as −log10 of the molar value.

Nc1nc2[nH]c(CCN(C(=O)C(F)(F)F)c3ccc(C(=O)N[C@@H](CCC(=O)O)C(=O)O)cc3)cc2c(=O)[nH]1	6.11
Nc1nc2[nH]c(CCOc3ccc(C(=O)N[C@@H](CCC(=O)O)C(=O)O)cc3)cc2c(=O)[nH]1	6.19
CC(=O)N(CCc1cc2c(=O)[nH]c(N)nc2[nH]1)c1ccc(C(=O)N[C@@H](CCC(=O)O)C(=O)O)cc1	6.09

Here are 2 compounds. What values of pIC50 were reported for them?
1. Nc1nc2[nH]c(CCNc3ccc(C(=O)N[C@@H](CCC(=O)O)C(=O)O)cc3)cc2c(=O)[nH]1
2. Nc1nc2[nH]c(CCN(C=O)c3ccc(C(=O)N[C@@H](CCC(=O)O)C(=O)O)cc3)cc2c(=O)[nH]1

**A:**
[6.29, 6.19]
